B1: LOXL2 (parent)
chain: HISSCKLGPQVSLDPMKNVTCENG

Variants of: B1
Test: protein stability index of a GFP-peptide fusion (GPS, HEK-293T) (PSI 1-6); higher = more stable;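 also: lentivirally expressed fusions sorted by FACS into six bins by GFP to DsRed ratio, PSI derived from sequencing read proportions per bin multiplied by bin number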
Settings: c terminus: a fixed tail appended
observed-property: protein stability index
Answer as a number with no unit attached.

Look over these answered cases.
>>> df
   mutation_notation  reported
0                I2N      3.76
1                K6A      3.96
2               D14Q      3.58
3                L7E      4.79
4                G8V      3.62
5               M16C      3.94
6               T20N      4.13
7               G24R      3.58
8                G8S      3.66
9               N18E      3.82

What the record says about N23A : protein stability index is 3.53

What the record says about S4V : protein stability index is 3.91

What the record says about M16F : protein stability index is 3.74

What the record says about V19T : protein stability index is 3.71

What the record says about P15Q : protein stability index is 4.03

What the record says about V11K : protein stability index is 3.48
